Here, each record is paired with measured pKi data.
- tested target: Bifunctional dihydrofolate reductase-thymidylate synthase (Plasmodium falciparum (isolate K1 / Thailand), UniProt P13922)
- Sequence (P13922 whole entry): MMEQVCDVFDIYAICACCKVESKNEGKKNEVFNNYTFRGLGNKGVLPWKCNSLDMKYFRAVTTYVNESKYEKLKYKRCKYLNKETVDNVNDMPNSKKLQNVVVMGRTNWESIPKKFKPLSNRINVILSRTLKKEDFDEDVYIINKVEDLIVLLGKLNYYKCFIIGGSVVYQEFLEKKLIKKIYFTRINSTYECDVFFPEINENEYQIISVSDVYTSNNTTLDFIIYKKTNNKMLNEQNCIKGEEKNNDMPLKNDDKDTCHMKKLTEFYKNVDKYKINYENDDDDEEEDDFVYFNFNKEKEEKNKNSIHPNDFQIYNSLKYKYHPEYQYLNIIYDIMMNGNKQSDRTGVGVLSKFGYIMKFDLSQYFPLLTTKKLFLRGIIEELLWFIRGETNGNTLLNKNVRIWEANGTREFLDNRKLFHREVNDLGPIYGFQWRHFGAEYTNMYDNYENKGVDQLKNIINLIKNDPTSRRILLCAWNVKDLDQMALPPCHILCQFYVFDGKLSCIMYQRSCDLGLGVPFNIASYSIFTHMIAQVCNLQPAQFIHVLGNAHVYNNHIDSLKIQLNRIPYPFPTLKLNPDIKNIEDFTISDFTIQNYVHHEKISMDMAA
- experiment notes: Antimalarial Testing In Vitro (IC50) and Measurement of Inhibition Constant (Ki)
- stated conditions: pH 7; 25 °C
Keep in mind that pKi stands for -log10 of concentration in molar terms.

> print(dat)
                              smiles.string  experimental.result
1  CC1(C)N=C(N)N=C(N)N1OCCCOc1cc(Cl)c(Cl)cc1Cl                10.70

Query: Name the reported pKi value associated with the molecule CC1(C)N=C(N)N=C(N)N1c1ccc(Cl)cc1
Reply: 8.21
